# experimental.target: Rat brain protein farnesyltransferase (Rattus norvegicus, UniProt Q02293+Q04631)
# Construct: The enzyme was purified according to Reiss, Y., et al., Cell, 62: 81-88 (1990), utilizing steps one through three; from tissue; host or cells: rat brain
# experiment.description: In vitro inhibition of protein farnesyltransferase (biotin-lamin substrate, scintillation proximity assay)
# Type: biochemical
# test.settings: 1 μM (footnote *); read-out: % Inhibition at 1 μM (protein farnesyltransferase, values marked *)
# Procedure: In vitro inhibition of protein farnesyltransferase may be measured by the following procedure. […] Rat brain protein farnesyltransferase activity was measured using the biotin-lamin substrate (which is known to undergo farnesylation in a manner analogous to Ras protein) and radioactive farnesyl diphosphate provided by Amersham Life Science in their commercial scintillation proximity assay kit for the determination of farnesyltransferase. […]
measured.quantity: inhibition at 1 µM (%)
Dear colleague, please return just the value in %, with no unit written.

Below, 2 compounds whose answers are already recorded.
compound | inhibition at 1 µM, %
O=C(O)[C@H]1[C@H](C(=O)N(Cc2ccc(Oc3ccccc3)cc2)Cc2ccc3ccccc3c2)[C@H](C(=O)O)[C@H]1C(=O)N(Cc1ccc(Oc2ccccc2)cc1)Cc1ccc2ccccc2c1 | 62
CCCN(C[C@H](C)CCCc1ccccc1)C(=O)[C@H]1[C@H](C(=O)O)[C@H](C(=O)N(CCC)C[C@H](C)CCCc2ccccc2)[C@H]1C(=O)O | 21

Ask: Could you tell me which inhibition at 1 µM is on file for O=C(O)C1C(C(=O)N(Cc2ccc(Oc3ccccc3)cc2)Cc2ccco2)C(C(=O)O)C1C(=O)N(Cc1ccc(Oc2ccccc2)cc1)Cc1ccco1 (centres unmarked) ?
Result: 82

Ask: Could you tell me which inhibition at 1 µM is on file for "O=C(O)[C@H]1[C@H](C(=O)N(CCO)Cc2ccc(Oc3ccccc3)cc2)[C@H](C(=O)O)[C@H]1C(=O)N(CCO)Cc1ccc(Oc2ccccc2)cc1" ?
Result: 22

Ask: Could you tell me which inhibition at 1 µM is on file for O=C(O)C1C(C(=O)N(CCSCc2ccccc2)Cc2ccc(Oc3ccccc3)cc2)C(C(=O)O)C1C(=O)N(CCSCc1ccccc1)Cc1ccc(Oc2ccccc2)cc1 (centres unmarked) ?
Result: 32

Ask: Could you tell me which inhibition at 1 µM is on file for O=C(O)CN(Cc1ccc(Oc2ccccc2)cc1)C(=O)C1C(C(=O)O)C(C(=O)N(CC(=O)O)Cc2ccc(Oc3ccccc3)cc2)C1C(=O)O (centres unmarked) ?
Result: 54

Ask: Could you tell me which inhibition at 1 µM is on file for "C[C@H](c1cccc2ccccc12)N(Cc1ccc(Oc2ccccc2)cc1)C(=O)[C@H]1[C@H](C(=O)O)[C@H](C(=O)N(Cc2ccc(Oc3ccccc3)cc2)[C@H](C)c2cccc3ccccc23)[C@H]1C(=O)O" ?
Result: 71

Ask: Could you tell me which inhibition at 1 µM is on file for CC(=O)OC(CCCN(Cc1ccccc1)C(=O)C1C(C(=O)O)C(C(=O)N(CCCC(OC(C)=O)C(C)Cc2ccccc2)Cc2ccccc2)C1C(=O)O)C(C)Cc1ccccc1 (centres unmarked) ?
Result: 93

Ask: Could you tell me which inhibition at 1 µM is on file for "C[C@H](c1ccccc1)N(Cc1ccc(Oc2ccccc2)cc1)C(=O)[C@H]1[C@H](C(=O)O)[C@H](C(=O)N(Cc2ccc(Oc3ccccc3)cc2)[C@H](C)c2ccccc2)[C@H]1C(=O)O" ?
Result: 66

Ask: Could you tell me which inhibition at 1 µM is on file for "O=C(O)[C@H]1[C@H](C(=O)N(Cc2ccc(Oc3ccccc3)cc2)Cc2cccs2)[C@H](C(=O)O)[C@H]1C(=O)N(Cc1ccc(Oc2ccccc2)cc1)Cc1cccs1" ?
Result: 92

Ask: Could you tell me which inhibition at 1 µM is on file for "C[C@H](C/C=C/c1ccccc1)CN(Cc1ccccc1)C(=O)[C@H]1[C@H](C(=O)O)[C@H](C(=O)N(Cc2ccccc2)C[C@H](C)C/C=C/c2ccccc2)[C@H]1C(=O)O" ?
Result: 61

Values were extracted from patent US5631401A.
